test system: HL-1; assay: relative cell viability (CellTiter-Glo) vs DMSO control (% of DMSO control); higher = more viable cells; conditions: oxygen condition: normoxia 72 h; 40 nM
Counter-ions that a name gives are not always drawn.
The following compounds are listed with their measured relative cell viability values.
Just the number, please, no unit attached.

Please review the entries below; each comes with its answer.
| compound | measurement target | readout label | meas value |
| --- | --- | --- | --- |
| Nc1nc2ccc(OC(F)(F)F)cc2s1 | HL-1 | relative cell viability | 103 |
| CCN(CC)CCOC(=O)c1ccc(N)cc1 | HL-1 | relative cell viability | 105 |
| Cc1ccc(N(CC2=NCCN2)c2cccc(O)c2)cc1 [Phentolamine mesilate] | HL-1 | relative cell viability | 102 |
| Cc1ncc(CO)c(CO)c1O [Pyridoxine hydrochloride] | HL-1 | relative cell viability | 99.7 |

Pending compound:
INPUT: Indicate the recorded relative cell viability value for this compound: O=C(O[C@H]1CN2CCC1CC2)N1CCc2ccccc2[C@@H]1c1ccccc1 [Solifenacin succinate]
OUTPUT: 104
